Biological target: PPARγ (Homo sapiens)
Assay: Gal4-hybrid reporter gene assay PPARγ
Settings: HEK293T, Gal4-hybrid reporter; Inactive = tested 1–300 μM; mean ± S.E.M., n ≥ 3
measurementType: EC50 (µM)

compound	assayTarget	unitsOfMeasure	EC50
COc1ccc(/C=C(/C(=O)O)C(F)(F)F)cc1	PPARγ (Homo sapiens)	µM	86

1 = O=C(O)/C=C/C(=O)c1ccc(-c2ccccc2)cc1
2 = CCc1c(C(=O)O)cnn1-c1ccccc1
3 = Cc1cccc(C(=O)/C=C/C(=O)O)c1 [4.3, (E)-4-Oxo-4-(m-tolyl)but-2-enoic acid]
(Q) # rank_down: sort by EC50, max first Reply format: the labels, ordered as requested.
(A) 2, 3, 1
(2: 237 µM, 3: 38 µM, 1: 18 µM)

a = O=C(O)/C=C/C(=O)c1ccc(Cl)cc1Cl
b = Cc1ccccc1C(=O)/C=C/C(=O)O [4.2, (E)-4-Oxo-4-(o-tolyl)but-2-enoic acid]
c = CSc1nccn1-c1ccc(C(=O)O)cc1
(Q) List the 3 entries from lowest EC50 to highest EC50 value. Reply format: the labels, ordered as requested.
(A) a, b, c

###

Target: RXRα (Homo sapiens)
Sequence (P19793 227-458 limits assumed): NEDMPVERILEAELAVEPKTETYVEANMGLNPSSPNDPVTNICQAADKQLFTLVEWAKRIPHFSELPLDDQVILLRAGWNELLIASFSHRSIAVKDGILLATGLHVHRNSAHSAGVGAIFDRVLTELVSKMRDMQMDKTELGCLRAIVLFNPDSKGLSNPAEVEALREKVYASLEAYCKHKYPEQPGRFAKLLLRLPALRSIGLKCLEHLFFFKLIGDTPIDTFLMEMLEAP
Assay: Gal4-hybrid reporter gene assay RXRα
Settings: HEK293T, Gal4-hybrid reporter; Inactive = tested 1–300 μM; mean ± S.E.M., n ≥ 3
measurementType: EC50 (µM)

Worked examples, 4 molecules total:
molecule	measurementType	value
COc1ccc(/C=C(/C(=O)O)C(F)(F)F)cc1	EC50	55
CCc1c(C(=O)O)cnn1-c1ccccc1	EC50	166
CCOc1ccc(-c2cc(C(=O)O)co2)cc1	EC50	0.9
O=C(O)/C=C/C=C/c1ccc2c(c1)OCO2	EC50	112

1 = Cc1cccc(C(=O)/C=C/C(=O)O)c1 [4.3, (E)-4-Oxo-4-(m-tolyl)but-2-enoic acid]
2 = O=C(O)CCCC#Cc1ccccc1
(Q) Of 1 and 2 , whose reported EC50 is numerically smaller? Please indicate the selected item by its label.
(A) 1
(1: 30 µM, 2: 129 µM)

###

Target: THRα (Homo sapiens, UniProt P10827)
Sequence (P10827 128-410 isoform P10827-2 limits assumed): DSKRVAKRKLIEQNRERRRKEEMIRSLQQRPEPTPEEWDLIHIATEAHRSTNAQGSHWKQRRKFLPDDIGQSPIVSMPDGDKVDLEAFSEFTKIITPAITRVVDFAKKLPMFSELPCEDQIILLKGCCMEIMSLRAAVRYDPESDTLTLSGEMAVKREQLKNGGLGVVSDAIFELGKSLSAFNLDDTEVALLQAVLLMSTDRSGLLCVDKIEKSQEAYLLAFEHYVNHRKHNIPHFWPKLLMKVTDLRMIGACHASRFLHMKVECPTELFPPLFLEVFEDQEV
Test: Gal4-hybrid reporter gene assay THRα
Details: HEK293T, Gal4-hybrid reporter; Inactive = tested 1–300 μM; mean ± S.E.M., n ≥ 3
pEC50: −log10 of the molar value.
measurementType: pEC50

molecule	pEC50
O=C(O)/C=C/C(=O)c1ccc(Cl)cc1Cl	4.37
Cc1ccc(C(=O)/C=C/C(=O)O)cc1 [4.4, (E)-4-Oxo-4-(p-tolyl)but-2-enoic acid]	4.55
O=C(O)/C=C/C=C/c1ccc2c(c1)OCO2	3.65

###

Target: UniProt Q96RI1
Sequence (Q96RI1 262-486 limits assumed): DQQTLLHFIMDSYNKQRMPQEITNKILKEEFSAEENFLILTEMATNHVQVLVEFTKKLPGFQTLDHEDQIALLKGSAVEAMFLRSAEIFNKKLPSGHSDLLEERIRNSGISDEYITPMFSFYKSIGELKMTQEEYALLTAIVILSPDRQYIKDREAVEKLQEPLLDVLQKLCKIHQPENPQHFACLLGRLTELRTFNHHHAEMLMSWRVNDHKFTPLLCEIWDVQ
Experiment: Gal4-hybrid reporter gene assay FXR
Details: HEK293T, Gal4-hybrid reporter; Inactive = tested 1–300 μM; mean ± S.E.M., n ≥ 3
measurementType: EC50 (µM)

molecule	EC50, µM
O=C(O)/C=C/C=C/c1ccc2c(c1)OCO2	138
Cc1cccc(C(=O)/C=C/C(=O)O)c1 [4.3, (E)-4-Oxo-4-(m-tolyl)but-2-enoic acid]	22

A = O=C(O)c1coc(-c2cccc(Cl)c2)c1
B = O=C(O)/C=C/C(=O)c1ccc2ccccc2c1
C = COc1ccc(/C=C(/C(=O)O)C(F)(F)F)cc1
(Q) List the 3 entries from lowest EC50 to highest EC50 value. Reply format: the labels, ordered as requested.
(A) A, B, C

###

Target: PPARγ (Homo sapiens, UniProt P37231)
Construct: expressed in transfected cells; host or cells: HEK293T
Sequence (P37231 238-503 limits assumed): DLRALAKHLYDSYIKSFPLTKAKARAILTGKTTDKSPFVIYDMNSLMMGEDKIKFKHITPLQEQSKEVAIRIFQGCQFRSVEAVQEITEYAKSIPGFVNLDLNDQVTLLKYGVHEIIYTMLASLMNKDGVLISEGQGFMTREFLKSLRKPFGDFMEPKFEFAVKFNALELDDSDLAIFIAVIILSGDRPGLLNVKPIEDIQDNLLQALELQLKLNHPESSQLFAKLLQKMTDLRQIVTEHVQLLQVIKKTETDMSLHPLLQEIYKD
Experiment: Gal4-hybrid reporter gene assay PPARγ
Format: cell-based
Settings: HEK293T, Gal4-hybrid reporter; Inactive = tested 1–300 μM; mean ± S.E.M., n ≥ 3
Measured pEC50 by item
Would you please state pEC50, meaning minus log10 of the concentration in mol/L, as a bare number?

O=C(O)c1ccc(Oc2ccccc2)cc1 4.00
N#Cc1c(F)c(F)cc(C(=O)O)c1F 4.41

Please find the next molecule below.
(Q) Record O=C(O)c1ccc(OCc2ccccc2)cc1 : what is its pEC50 with PPARγ (Homo sapiens, UniProt P37231)?
(A) 3.87
